# measuredTarget: histone deacetylase activity (HeLa nuclear extract)
# Construct: Histone deacetylase activity from crude nuclear extract derived from HeLa cells was used for screening
# methodDescription: HDAC fluorescent activity assay (Biomol Fluor de Lys), HeLa nuclear extract
# Assay type: biochemical
# conditionSet: Fluor de Lys substrate, IC50 range
pIC50: −log10 of the molar value.
Entries annotated with measured pIC50

Study these solved cases before continuing.
INSERT INTO measurements (smilesrepr, valueobserved) VALUES
  ('O=C(CCCCCCC(=O)Nc1cccc(CCN[C@H](C(=O)OC2CCCC2)c2ccccc2)c1)NO', '> 7.00'),
  ('O=C(CCCCCCC(=O)Nc1ccc(S(=O)(=O)N[C@H](C(=O)OC2CCCC2)c2ccccc2)cc1)NO', '6.00 to 7.00'),
  ('O=C(NO)c1cc2ccc(CNCc3ccc(CN[C@H](C(=O)O)c4ccccc4)cc3)cc2s1', '> 7.00');

Please turn your attention to the following entry.
Q: Give pIC50 (histone deacetylase activity (HeLa nuclear extract)) of the following compound: "CC(C)(C)OC[C@H](NCc1cccc(NC(=O)CCCCCCC(=O)NO)c1)C(=O)OC1CCCC1"
A: 6.00 to 7.00

* * *

# measuredTarget: histone deacetylase activity (HeLa nuclear extract)
# Construct: Histone deacetylase activity from crude nuclear extract derived from HeLa cells was used for screening
# methodDescription: HDAC fluorescent activity assay (Biomol Fluor de Lys), HeLa nuclear extract
# conditionSet: Fluor de Lys substrate, IC50 range
pIC50: −log10 of the molar value.
quantityName: pIC50

Some solved entries appear below for comparison.
INSERT INTO measurements (compound, valueobserved) VALUES
  ('CC(C)C[C@H](NCc1ccc(CNCc2ccc3cc(C(=O)NO)sc3c2)cc1)C(=O)O', '> 7.00'),
  ('O=C(CCCCCCC(=O)N1Cc2ccccc2C[C@H]1C(=O)N[C@@H](Cc1ccccc1)C(=O)O)NO [Compound 48]', '< 6.00'),
  ('COc1ccc2[nH]c3c(c2c1)CCN(C(=O)CCCCCCC(=O)NO)C3C(=O)N[C@H](C(=O)OC1CCCC1)c1ccccc1 (some centres unmarked) [Compound 11]', '6.00 to 7.00'),
  ('CC(C)C[C@H](NCC1CCC(CNCc2ccc3cc(C(=O)NO)sc3c2)CC1)C(=O)O (some centres unmarked)', '6.00 to 7.00'),
  ('O=C(Cc1ccc(OCCCC(=O)N[C@@H](Cc2ccccc2)C(=O)OC2CCCC2)cc1)Nc1ccc2sc(C(=O)NO)cc2c1', '6.00 to 7.00');

Q: Can you look up the measured pIC50 of "CC(C)(C)OC[C@H](NCc1cccc(NC(=O)CCCCCCC(=O)NO)c1)C(=O)O" for me?
A: 6.00 to 7.00

Q: // lookup pIC50 for "O=C(CCCCCCC(=O)Nc1cccc(OCCCN[C@@H](Cc2ccccc2)C(=O)OC2CCCC2)c1)NO"
A: > 7.00

Q: Would you mind telling me what pIC50 value was observed for "CC(C)(C)OC[C@H](NCc1ccc(CNCc2ccc3cc(C(=O)NO)sc3c2)cc1)C(=O)OC1CCCC1" ?
A: > 7.00

Q: Would you mind telling me what pIC50 value was observed for "CC(C)C[C@H](NC(=O)[C@@H]1Cc2ccc(NC(=O)CCCCCCC(=O)NO)cc2CN1)C(=O)OC1CCCC1" ?
A: 6.00 to 7.00

Q: If you can, please state the reported pIC50 value of "O=C(CCCCCCC(=O)N1Cc2[nH]c3ccccc3c2[C@H](C(=O)N[C@@H](Cc2ccccc2)C(=O)OC2CCCC2)C1)NO" .
A: 6.00 to 7.00

Q: Reported pIC50 for "O=C(NO)c1cc2ccc(CNCc3ccc(CN4CCC[C@H]4C(=O)O)cc3)cc2s1" : what is it?
A: 6.00 to 7.00

Q: For the compound "O=C(CCCCCCC(=O)Nc1cccc(OCCCN[C@H](C(=O)OC2CCCC2)c2ccccc2)c1)NO" , what pIC50 is on record?
A: > 7.00

Q: Entry under review: "O=C(NO)c1cc2ccc(CNCc3ccc(CN4CCC[C@H]4C(=O)OC4CCCC4)cc3)cc2s1" . Reported pIC50?
A: > 7.00

Q: Need pIC50, item O=C(CCCCCCC(=O)N1Cc2[nH]c3ccccc3c2C(C(=O)NC(Cc2ccccc2)C(=O)O)C1)NO (centres unmarked)
A: > 7.00

Q: # get_value(readout='pIC50', item= "O=C(CCCCCCC(=O)Nc1cccc(CNC(=O)N[C@H](C(=O)OC2CCCC2)c2ccccc2)c1)NO" )
A: > 7.00

Q: # pIC50 lookup, item "O=C(CCCCCCC(=O)Nc1ccc(C(=O)N[C@H](C(=O)OC2CCCC2)c2ccccc2)cc1)NO"
A: 6.00 to 7.00

Q: What pIC50 value was documented for this compound, "O=C(CCCCCCC(=O)N1Cc2[nH]c3ccccc3c2C[C@H]1C(=O)N[C@H](C(=O)OC1CCCC1)c1ccccc1)NO" ?
A: < 6.00

Q: Give its pIC50 value. Item: "CC(C)(C)OC(=O)[C@@H](NC(=O)[C@H]1Cc2c([nH]c3ccccc23)CN1C(=O)CCCCCCC(=O)NO)c1ccccc1"
A: 6.00 to 7.00

Q: Query (compound): "CC(C)C[C@H](NCc1ccc(NC(=O)CCCCCCC(=O)NO)cc1)C(=O)OC1CCCC1" ; field requested: pIC50
A: 6.00 to 7.00

Q: Please look up its pIC50: "O=C(CCCCCCC(=O)N1Cc2[nH]c3ccccc3c2C[C@H]1C(=O)N[C@H](C(=O)O)c1ccccc1)NO"
A: 6.00 to 7.00

Q: Item "O=C(CCCCCCC(=O)Nc1ccc(CN[C@@H](C(=O)OC2CCCC2)c2ccccc2)cc1)NO" has what recorded pIC50?
A: 6.00 to 7.00

Q: I am curious: what pIC50 value has been reported for "CC(C)(C)SC[C@H](NCc1ccc(CNCc2ccc3cc(C(=O)NO)sc3c2)cc1)C(=O)OC1CCCC1" ?
A: 6.00 to 7.00

Q: Item "CC(C)(C)OC[C@H](NCc1ccc(NC(=O)CCCCCCC(=O)NO)cc1)C(=O)OC1CCCC1" has what recorded pIC50?
A: 6.00 to 7.00

Q: # pIC50 lookup, item O=C(CCCCCCC(=O)N1CCc2c([nH]c3ccccc23)C1C(=O)N[C@@H](Cc1ccccc1)C(=O)OC1CCCC1)NO (some centres unmarked)
A: 6.00 to 7.00

Q: I am curious: what pIC50 value has been reported for "CC(C)(C)OC[C@H](NCc1ccc(NC(=O)CCCCCCC(=O)NO)cc1)C(=O)O" ?
A: 6.00 to 7.00

* * *

# measuredTarget: histone deacetylase activity (HeLa nuclear extract)
# Construct: Histone deacetylase activity from crude nuclear extract derived from HeLa cells was used for screening
# methodDescription: HDAC fluorescent activity assay (Biomol Fluor de Lys), HeLa nuclear extract
# conditionSet: Fluor de Lys substrate, IC50 range
Consider the following compounds and their measured IC50 readings.

Below are worked cases with known answers.
INSERT INTO results (compound, valueobserved) VALUES
  ('O=C(CCCCCCC(=O)N1CCCC1C(=O)N[C@H](C(=O)OC1CCCC1)c1ccccc1)NO (stereo partly shown)', '> 1000 nM'),
  ('CCOC(=O)[C@H](Cc1ccccc1)NC(=O)C1CCCN1C(=O)CCCCCCC(=O)NO (stereo partly shown)', '> 1000 nM'),
  ('O=C(CCCCCCC(=O)Nc1cccc(OCCN[C@@H](Cc2ccccc2)C(=O)OC2CCCC2)c1)NO', '< 100 nM'),
  ('O=C(CCCCCCC(=O)N1Cc2ccccc2C[C@H]1C(=O)N[C@H](C(=O)O)c1ccccc1)NO', '> 1000 nM');

Q: Checklist item: IC50 tested on histone deacetylase activity (HeLa nuclear extract), entry "CCOC(=O)[C@H](Cc1ccccc1)NC(=O)[C@@H]1Cc2ccccc2CN1C(=O)CCCCCCC(=O)NO" , value?
A: 101 to 1000 nM

Q: What is its IC50 for histone deacetylase activity (HeLa nuclear extract)? Entry: "O=C(CCCCCCC(=O)Nc1cccc(CN[C@@H](Cc2ccccc2)C(=O)O)c1)NO"
A: 101 to 1000 nM

Q: I'm curious: which IC50 was measured for "O=C(CCCCCCC(=O)Nc1cccc(COC(=O)N[C@@H](Cc2ccccc2)C(=O)OC2CCCC2)c1)NO" tested on histone deacetylase activity (HeLa nuclear extract)?
A: 101 to 1000 nM

* * *

Each entry below carries its recorded pIC50.
# System: U937 cancer cell line
# methodDescription: Cell inhibition assay (SRB cell viability), U937
# Assay type: cell-based
# conditionSet: Homo sapiens, U-937, U937 cells, 72 h, IC50 range
pIC50: −log10 of the molar value.

INSERT INTO assay_data (compound, measuredtarget, valueobserved) VALUES
  ('CCOC(=O)[C@H](Cc1ccccc1)NC(=O)[C@H]1Cc2c([nH]c3ccccc23)CN1C(=O)CCCCCCC(=O)NO [Compound 5]', 'U937 cancer cell line', '5.48 to 6.48');

Q: Fill in: pIC50 of CC(C)(C)OC(=O)[C@@H](NCc1cccc(NC(=O)CCCCCCC(=O)NO)c1)c1ccccc1 [Compound 35] is ___
A: 5.48 to 6.48

Q: Data request, read-out pIC50, for CC(C)C[C@H](NC(=O)c1cccc(NC(=O)CCCCCCC(=O)NO)c1)C(=O)OC1CCCC1 [Compound 62]
A: < 5.48

Q: Fill blank: measured pIC50 of the compound O=C(CCCCCCC(=O)Nc1ccc(CN[C@@H](C(=O)OC2CCCC2)c2ccccc2)cc1)NO [Compound 83] is ____.
A: 5.48 to 6.48

Q: Dear colleague, I am looking for the recorded pIC50 of the following compound: O=C(CCCCCCC(=O)N1CCc2c([nH]c3ccccc23)C1CN[C@H](C(=O)OC1CCCC1)c1ccccc1)NO (stereo partly shown) [Compound 42]
A: 5.48 to 6.48

Q: For the compound shown here, CSCC[C@H](NCc1ccc(CNCc2ccc3cc(C(=O)NO)sc3c2)cc1)C(=O)OC1CCCC1 [Compound 110] , give the reported pIC50.
A: > 6.48

Q: Value lookup for pIC50; key = O=C(CCCCCCC(=O)Nc1ccc(CN[C@@H](Cc2ccccc2)C(=O)OC2CCCC2)cc1)NO [Compound 91]
A: 5.48 to 6.48

Q: Need pIC50 of CC(C)C[C@H](NC(=O)[C@@H]1Cc2ccccc2CN1C(=O)CCCCCCC(=O)NO)C(=O)OC1CCCC1 [Compound 51] , thanks.
A: 5.48 to 6.48

Q: Fill in: pIC50 of CCOC(=O)[C@H](CC(C)C)NC(=O)[C@@H]1Cc2ccccc2CN1C(=O)CCCCCCC(=O)NO [Compound 50] is ___
A: 5.48 to 6.48

Q: Which pIC50 value belongs to O=C(CCCCCCC(=O)N1CCc2ccc(C(=O)N[C@H](C(=O)O)c3ccccc3)cc2C1)NO [Compound 16] ?
A: < 5.48

Q: // query pIC50 value for entry CC(C)(C)OC(=O)[C@@H](NC(=O)[C@H]1Cc2c([nH]c3ccccc23)CN1C(=O)CCCCCCC(=O)NO)c1ccccc1 [Compound 19]
A: 5.48 to 6.48

Q: I'd like to know its pIC50. The compound in question is O=C(CCCCCCC(=O)Nc1ccccc1CN[C@H](C(=O)OC1CCCC1)c1ccccc1)NO [Compound 40]
A: < 5.48

Q: Please report the recorded pIC50 for CCOC(=O)[C@H](CCc1ccccc1)NCc1cccc(NC(=O)CCCCCCC(=O)NO)c1 [Compound 29] .
A: 5.48 to 6.48
